Assay: Pharmacokinetic studies in mice (IP and IV)
Assay type: in vivo
Settings: male, C57BL/6 J, mouse, plasma, 10 mg/kg IV
Tmax for assorted compounds

{"columns": ["compound", "outcome-measure", "assay-value"],
 "data": [
  ["O=C(Nc1ccc(C(OCO[C@@H]2O[C@H](CO)[C@H](O)[C@H](O)[C@H]2O)(C(F)(F)F)C(F)(F)F)cc1)c1ccc(C(F)(F)F)cc1", "Tmax", "30 min"]
]}

Please examine the following record next.
Asked: Which Tmax value is on record for O=C(Nc1ccc(C(O)(C(F)(F)F)C(F)(F)F)cc1)c1ccc(C(F)(F)F)cc1 [SR1078, reference compound] ?
Given back: 30 min

---

Assay: Pharmacokinetic studies in mice (IP and IV)
Type: in vivo
Settings: male, C57BL/6 J, mouse, plasma, 10 mg/kg IV
Cmax for assorted molecules
API: value field is a number in ng/mL; no unit string.

{"columns": ["molecule", "unit-string", "Cmax"],
 "data": [
  ["O=C(Nc1ccc(C(OCO[C@@H]2O[C@H](CO)[C@H](O)[C@H](O)[C@H]2O)(C(F)(F)F)C(F)(F)F)cc1)c1ccc(C(F)(F)F)cc1", "ng/mL", 4990]
]}

Please examine the following record next.
Asked: Which Cmax value is on record for O=C(Nc1ccc(C(O)(C(F)(F)F)C(F)(F)F)cc1)c1ccc(C(F)(F)F)cc1 [SR1078, reference compound] ?
Given back: 7130

---

Assay: Pharmacokinetic studies in mice (IP and IV)
Assay type: in vivo
Details: male, C57BL/6 J, mouse, plasma, 10 mg/kg IP, 8 h, read-out: mean plasma concentration 8 h after injection
concentration at 8 h for assorted compounds
API: value field is a number in ng/mL; no unit string.

{"columns": ["compound", "assay-value"],
 "data": [
  ["O=C(Nc1ccc(C(O)(C(F)(F)F)C(F)(F)F)cc1)c1ccc(C(F)(F)F)cc1 [SR1078, reference compound]", 2.96]
]}

Please examine the following record next.
Asked: Which concentration at 8 h value is on record for O=C(Nc1ccc(C(OCO[C@@H]2O[C@H](CO)[C@H](O)[C@H](O)[C@H]2O)(C(F)(F)F)C(F)(F)F)cc1)c1ccc(C(F)(F)F)cc1 ?
Given back: 202

---

Experiment: Pharmacokinetic studies in mice (IP and IV)
Assay type: in vivo
Conditions: male, C57BL/6 J, mouse, plasma, 10 mg/kg IP
outcome-measure: Cmax (ng/mL)
API: value field is a number in ng/mL; no unit string.

{"columns": ["compound", "Cmax, ng/mL"],
 "data": [
  ["O=C(Nc1ccc(C(O)(C(F)(F)F)C(F)(F)F)cc1)c1ccc(C(F)(F)F)cc1 [SR1078, reference compound]", 1810]
]}

Asked: Which Cmax value is on record for O=C(Nc1ccc(C(OCO[C@@H]2O[C@H](CO)[C@H](O)[C@H](O)[C@H]2O)(C(F)(F)F)C(F)(F)F)cc1)c1ccc(C(F)(F)F)cc1 ?
Given back: 1310

---

Test: Pharmacokinetic studies in mice (IP and IV)
Assay type: in vivo
Settings: male, C57BL/6 J, mouse, plasma, 10 mg/kg IP
outcome-measure: half-life (h)
API: value field is a number in h; no unit string.

{"columns": ["compound", "unit-string", "assay-value"],
 "data": [
  ["O=C(Nc1ccc(C(O)(C(F)(F)F)C(F)(F)F)cc1)c1ccc(C(F)(F)F)cc1 [SR1078, reference compound]", "h", 0.97]
]}

Asked: Which half-life value is on record for O=C(Nc1ccc(C(OCO[C@@H]2O[C@H](CO)[C@H](O)[C@H](O)[C@H]2O)(C(F)(F)F)C(F)(F)F)cc1)c1ccc(C(F)(F)F)cc1 ?
Given back: 3.43

---

Assay: Kinetic solubility test
Assay type: physicochemical
Conditions: water, 25 °C, kinetic from dmso stock
outcome-measure: solubility kinetic at 2 h (µM)
API: value field is a number in µM; no unit string.

Use these answered entries as a reference point.
{"columns": ["molecule", "solubility kinetic at 2 h [µM]"],
 "data": [
  ["O=C(Nc1ccc(C(O)(C(F)(F)F)C(F)(F)F)cc1)c1ccc(C(F)(F)F)cc1 [SR1078, reference compound]", 4.15],
  ["O=C(Nc1ccc(C(OCO[C@H]2O[C@H](CO)[C@@H](O)[C@H](O)[C@@H]2O)(C(F)(F)F)C(F)(F)F)cc1)c1ccc(C(F)(F)F)cc1", 198],
  ["O=C(Nc1ccc(C(OCO[C@@H]2O[C@H](CO)[C@@H](O[C@H]3O[C@H](CO)[C@@H](O)[C@H](O)[C@H]3O)[C@H](O)[C@H]2O)(C(F)(F)F)C(F)(F)F)cc1)c1ccc(C(F)(F)F)cc1", 286]
]}

Asked: Which solubility kinetic at 2 h value is on record for O=C(Nc1ccc(C(OCO[C@@H]2O[C@H](CO)[C@H](O)[C@H](O)[C@H]2O)(C(F)(F)F)C(F)(F)F)cc1)c1ccc(C(F)(F)F)cc1 ?
Given back: 282

---

bioavailability for assorted compounds
Experiment: Pharmacokinetic studies in mice (IP and IV)
Assay type: in vivo
Settings: male, C57BL/6 J, mouse, plasma, intraperitoneal, IP versus IV, 10 mg/kg

{"columns": ["compound", "bioavailability"],
 "data": [
  ["O=C(Nc1ccc(C(O)(C(F)(F)F)C(F)(F)F)cc1)c1ccc(C(F)(F)F)cc1 [SR1078, reference compound]", "~75.1%"]
]}

Asked: Which bioavailability value is on record for O=C(Nc1ccc(C(OCO[C@@H]2O[C@H](CO)[C@H](O)[C@H](O)[C@H]2O)(C(F)(F)F)C(F)(F)F)cc1)c1ccc(C(F)(F)F)cc1 ?
Given back: ~74.3%

---

Test: Pharmacokinetic studies in mice (IP and IV)
Type: in vivo
Details: male, C57BL/6 J, mouse, plasma, 10 mg/kg IV
AUC for assorted compounds

{"columns": ["compound", "AUC"],
 "data": [
  ["O=C(Nc1ccc(C(OCO[C@@H]2O[C@H](CO)[C@H](O)[C@H](O)[C@H]2O)(C(F)(F)F)C(F)(F)F)cc1)c1ccc(C(F)(F)F)cc1", "8180 ng·h/mL"]
]}

Please examine the following record next.
Asked: Which AUC value is on record for O=C(Nc1ccc(C(O)(C(F)(F)F)C(F)(F)F)cc1)c1ccc(C(F)(F)F)cc1 [SR1078, reference compound] ?
Given back: 2540 ng·h/mL

---

Test: Pharmacokinetic studies in mice (IP and IV)
Format: in vivo
Conditions: male, C57BL/6 J, mouse, plasma, ip, 10 mg/kg, 10 mg/kg IP, read-out: MRTInf_obs (mean retention time)
outcome-measure: MRT inf (h)
API: value field is a number in h; no unit string.

{"columns": ["molecule", "unit-string", "MRT inf"],
 "data": [
  ["O=C(Nc1ccc(C(O)(C(F)(F)F)C(F)(F)F)cc1)c1ccc(C(F)(F)F)cc1 [SR1078, reference compound]", "h", 1.19]
]}

Please examine the following record next.
Asked: Which MRT inf value is on record for O=C(Nc1ccc(C(OCO[C@@H]2O[C@H](CO)[C@H](O)[C@H](O)[C@H]2O)(C(F)(F)F)C(F)(F)F)cc1)c1ccc(C(F)(F)F)cc1 ?
Given back: 4.5

---

MRT inf for assorted compounds
Assay: Pharmacokinetic studies in mice (IP and IV)
Format: in vivo
Conditions: male, C57BL/6 J, mouse, plasma, iv, 10 mg/kg, 10 mg/kg IV, read-out: MRTInf_obs
API: value field is a number in h; no unit string.

{"columns": ["compound", "outcome-measure", "unit-string", "assay-value"],
 "data": [
  ["O=C(Nc1ccc(C(O)(C(F)(F)F)C(F)(F)F)cc1)c1ccc(C(F)(F)F)cc1 [SR1078, reference compound]", "MRT inf", "h", 0.487]
]}

Please examine the following record next.
Asked: Which MRT inf value is on record for O=C(Nc1ccc(C(OCO[C@@H]2O[C@H](CO)[C@H](O)[C@H](O)[C@H]2O)(C(F)(F)F)C(F)(F)F)cc1)c1ccc(C(F)(F)F)cc1 [Gala-SR] ?
Given back: 2.97

---

Tmax for assorted molecules
Assay: Pharmacokinetic studies in mice (IP and IV)
Type: in vivo
Details: male, C57BL/6 J, mouse, plasma, 10 mg/kg IP
API: value field is a number in min; no unit string.

{"columns": ["molecule", "Tmax / min"],
 "data": [
  ["O=C(Nc1ccc(C(O)(C(F)(F)F)C(F)(F)F)cc1)c1ccc(C(F)(F)F)cc1 [SR1078, reference compound]", 30]
]}

Asked: Which Tmax value is on record for O=C(Nc1ccc(C(OCO[C@@H]2O[C@H](CO)[C@H](O)[C@H](O)[C@H]2O)(C(F)(F)F)C(F)(F)F)cc1)c1ccc(C(F)(F)F)cc1 ?
Given back: 30
